All values here come from patent US8575391B2.

test: physchem; format: physicochemical; details: phosphate buffer, 20 °C, pH 6.5, aqueous buffer, thermodynamic from solid; read-out: Water solubility
result type: solubility at 2 h (µM)
Unit µM implied. Number only.

Note to self: solubility at 2 h recorded for CNC(=O)CCONCc1cc(C(=O)NOCCO)c(Nc2ccc(I)cc2F)c(F)c1F was 291

---

Catalogue of half-life values
experiment: in vitro; assay type: in vitro ADME; conditions: liver microsomes; mouse liver microsome 1 mg protein/mL, 2 mM NADPH, pH 7.4, 37° C.; read-out: Stability against mouse liver microsome T1/2

Example results:
CON(Cc1cc(C(=O)NOCCO)c(Nc2ccc(I)cc2F)c(F)c1F)C(=O)CO [Compound F-5] = 0.867 h
C#Cc1ccc(Nc2c(C(=O)NOCCO)cc(CN3OCCCC3=O)c(F)c2F)c(F)c1 [Compound G-4] = > 6 h
CC(C)(O)CONCc1cc(C(=O)NOCCO)c(Nc2ccc(I)cc2F)c(F)c1F [Compound C-28] = > 6 h
O=C(NOCCO)c1cc(COCCCO)c(F)c(F)c1Nc1ccc(I)cc1F [Compound B-6] = > 6 h
O=C(NOCCO)c1cc(COCC(O)CO)c(F)c(F)c1Nc1ccc(I)cc1F (centres unmarked) [Compound B-9] = > 6 h

Note to self: half-life recorded for C[S+]([O-])CCONCc1cc(C(=O)NOCCO)c(Nc2ccc(I)cc2F)c(F)c1F (centres unmarked) [Compound C-31] was > 6 h

Note to self: half-life recorded for O=C(NOCCO)c1ccc(F)c(F)c1Nc1ccc(I)cc1F [P, reference compound] was 0.133 h

Note to self: half-life recorded for CC(=O)NCCONCc1cc(C(=O)NOCCO)c(Nc2ccc(I)cc2F)c(F)c1F [Compound C-7] was 2.13 h
